These data points were gathered from patent US20170204184A1.

Biological target: T1, hPD-L1-hFc (human)
T1 construct: it may hold a signal peptide ('open reading frame of the extracellular domain'); also called PD-L1-hFc protein; human PD-L1 extracellular domain fused with human Fc tag
T1 sequence (chain, as listed by the source limits assumed): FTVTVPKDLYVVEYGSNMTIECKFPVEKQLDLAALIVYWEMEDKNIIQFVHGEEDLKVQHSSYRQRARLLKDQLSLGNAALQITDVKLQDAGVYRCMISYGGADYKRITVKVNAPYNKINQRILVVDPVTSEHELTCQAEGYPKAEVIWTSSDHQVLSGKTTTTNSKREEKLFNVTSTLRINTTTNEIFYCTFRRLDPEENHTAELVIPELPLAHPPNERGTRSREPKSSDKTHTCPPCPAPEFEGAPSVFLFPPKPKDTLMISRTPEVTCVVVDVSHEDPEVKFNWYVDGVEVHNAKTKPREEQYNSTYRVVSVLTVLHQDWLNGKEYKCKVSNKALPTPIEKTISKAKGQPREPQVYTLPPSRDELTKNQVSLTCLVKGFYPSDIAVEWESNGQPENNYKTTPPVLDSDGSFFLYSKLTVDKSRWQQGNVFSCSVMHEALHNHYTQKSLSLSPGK
Test: ELISA, coated PD-L1-hFc
Recorded measurements of EC50, one per entry
Please reply with the bare figure in µg/mL and do not write the unit itself.

Consider m8H4 (antibody, V domains shown, Murine hybridoma IgG (printed 'mIgG'); also called 8H4-mIgG; 8H4 murine) VH: EVKLVESGGGLVKPGGSLKLSCAASGFTFRSYGMSWARQIPEKRLEWVASISSGGTTYYLGSVQGRFTISRDNARNILYLQMSSLRSEDTAMYYCARGYDAGFAYWGQGTLVSVSE VL: DIVLTQSPASLAVSLGQRATISCRASQSVSTSSYSYMHWYQQKPGQPPKLLIKYASNLESGVPARFSGSGSGTDFTLNIHPVEEEDTATYYCQNSWEIPYTFGGGTKLEIK . Its measured EC50 is 0.029

The value of EC50 measured for the binder m4A8 (antibody, V domains shown, Murine hybridoma IgG (printed 'mIgG'); also called 4A8-mIgG; 4A8 murine) VH: QVQLKQSGPGLVQPSQSLSITCTVSGFSLTSYGVHWVRQSPGKGLEWLGVIWSGGITDYNAAFKSRLSISKDNSKSQVFFKMNSLQANDTAIYFCARLGFYAMDYWGQGTSVTVSS VL: QIVLTQSPAIMSASPGEKVTMTCSANSSVSYMHWYQQKSGTSPKRWIYDTSKLASGVPARFSGSGSGTSYSLTISSMGAEDAATYYCQQWSSNPWTFGGGTKLEIK turned out to be 0.0576

Entry under test: m5G9 (antibody, V domains shown, Murine hybridoma IgG (printed 'mIgG'); also called 5G9-mIgG; 5G9 murine) VH: EVKLVESGGGLVKPGGSLKLSCAASGFTFRSYGMSWVRQTPEKRLEWVASISSGGTTYYPDSVKGRFIISRDNARNILYLQMSSLRSEDTAMYYCAKGYDSGFAYWGQGTLVIVSA VL: DIVLTQSPPSLAVSLGQRATISCRASQSVSTSSSSYMHWYQQKPGQPPKLLIKYASNLESGVPARFSGSGSGTDFTLNIHPVEEEDTATYYCQHSWEIPYTFGGGTKLEIK . Its EC50 was 0.0312
